Measured On: T1, human ROR2 extracellular domain (ROR2 ECD recombinant protein) (human, UniProt Q01974 34-403)
T1 construct: also called human ROR2-ECD; hROR2-ECD
Measurement Notes: kinetic binding analysis, full length IgG1 on human ROR2-ECD
Below, each of the binders is paired with its reported koff value.
Property Name: koff (s⁻¹)

# Binder, Experimental Result
data = [
    ("ROR2-23 full length human IgG1 antibody (antibody, V domains shown, The light chain of clone 023 is labelled kappa; also called clone #23; clone #023 IgG1) VH: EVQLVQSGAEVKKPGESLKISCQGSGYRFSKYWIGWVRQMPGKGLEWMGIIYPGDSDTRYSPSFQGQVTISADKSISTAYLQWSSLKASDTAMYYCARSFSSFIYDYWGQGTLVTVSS VL: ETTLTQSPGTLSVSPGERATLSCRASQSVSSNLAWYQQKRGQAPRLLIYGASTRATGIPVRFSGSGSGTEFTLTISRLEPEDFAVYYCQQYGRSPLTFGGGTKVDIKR", 0.000432),
    ("ROR2-240 full length human IgG1 antibody (antibody, V domains shown, also called clone #240 IgG1) VH: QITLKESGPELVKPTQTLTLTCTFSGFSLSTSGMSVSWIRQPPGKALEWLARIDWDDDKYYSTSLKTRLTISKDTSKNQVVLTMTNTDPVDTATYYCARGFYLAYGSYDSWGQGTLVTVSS VL: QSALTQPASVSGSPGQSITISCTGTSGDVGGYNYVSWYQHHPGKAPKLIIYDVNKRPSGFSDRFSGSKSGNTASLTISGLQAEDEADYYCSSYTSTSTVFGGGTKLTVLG", "4.45e-05"),
    ("ROR2-90 full length human IgG1 antibody (antibody, V domains shown, also called clone #90; antibody #90) VH: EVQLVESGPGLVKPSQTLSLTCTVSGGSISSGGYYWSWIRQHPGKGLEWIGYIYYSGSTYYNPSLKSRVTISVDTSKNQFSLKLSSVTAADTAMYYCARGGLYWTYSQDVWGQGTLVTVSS VL: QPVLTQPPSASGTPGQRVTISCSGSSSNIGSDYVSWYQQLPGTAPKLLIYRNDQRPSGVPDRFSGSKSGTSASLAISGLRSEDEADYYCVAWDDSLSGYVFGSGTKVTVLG", 0.000167),
    ("ROR2-27 full length human IgG1 antibody (antibody, V domains shown, also called clone #27; clone #027 IgG1) VH: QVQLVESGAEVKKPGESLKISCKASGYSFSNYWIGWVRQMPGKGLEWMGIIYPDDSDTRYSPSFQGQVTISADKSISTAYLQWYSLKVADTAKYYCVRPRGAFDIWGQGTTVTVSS VL: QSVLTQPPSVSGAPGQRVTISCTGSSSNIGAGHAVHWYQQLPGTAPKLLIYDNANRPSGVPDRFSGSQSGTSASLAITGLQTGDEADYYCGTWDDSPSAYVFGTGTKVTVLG", 0.000608),
]

Each recorded value in this set is attributed to patent US20180127503A1.
